From: patent EP0354522A1

# Restakt. bei 10^-4 M per record follows
- SYSTEM: HIV-Protease (Human immunodeficiency virus type 1 group M subtype B)
- Construct: Max-Planck-Institut für Molekulare Genetik, Berlin
- ASSAY PROCEDURE: HIV protease test (cleavage of heptapeptide Ser-Phe-Asn-Phe-Pro-Gln-Ile, HPLC quantification of Ser-Phe-Asn-Phe)
- Assay type: biochemical
- MEASUREMENT SETUP: residual enzyme activity at 10^-4 M inhibitor; 100 % = mean of runs without inhibitor; 2 h, 37°C, pH ca. 6,0, 1 % DMSO; 100 µM
State just the number; it will be interpreted in %.

Consider the worked cases shown below.
Iva-Thi-His-(Cyclohexylmethyl,dihydroxyboryl)methylamid [Beispiel 9]	93
Iva-Phe-Nva-[Cyclohexylmethyl,[(N-B)-(2,2′-iminodiethanolato)-boryl]]methylamid [Beispiel 6]	41
Iva-Phe-Nva-(Cyclohexylmethyl,dihydroxyboryl)methylamid [Beispiel 5]	38
Iva-Phe-His-(Cyclooctylmethyl,dihydroxyboryl)methylamid [Beispiel 24]	78
Iva-Phe-Nva-(Cyclooctylmethyl,dihydroxyboryl)methylamid [Beispiel 20]	27

Field: next substance
Task: Return Restakt. bei 10^-4 M measured with HIV-Protease (Human immunodeficiency virus type 1 group M subtype B) given this substance: Iva-Phe-Nva-[Cycloundecylmethyl, (4,4,5,5-tetramethyl-1,3,2-dioxaborolan-2-yl)]methylamid [Beispiel 13]
Result: 35

###

- SYSTEM: HIV-Protease (Human immunodeficiency virus type 1 group M subtype B, UniProt P04585)
- Construct: Max-Planck-Institut für Molekulare Genetik, Berlin
- ASSAY PROCEDURE: HIV protease test (cleavage of heptapeptide Ser-Phe-Asn-Phe-Pro-Gln-Ile, HPLC quantification of Ser-Phe-Asn-Phe)
- Format: biochemical
- MEASUREMENT SETUP: residual enzyme activity at 10^-4 M inhibitor; 100 % = mean of runs without inhibitor; 2 h, 37°C, pH ca. 6,0, 1 % DMSO; read-out: Restakt. bei 10^-4 M
Grouping rule (activity at 100 µM): lo = under 40%, med = from 40% up to 60%, hi = 60% and over

Task: Classify this compound: CCC[C@H](NC(=O)C(Cc1cccc2ccccc12)CS(=O)(=O)C(C)(C)C)C(=O)NC(CC(CC)CC)B1OC(C)(C)C(C)(C)O1 (stereo partly drawn)
Result: lo

Task: Queued: CC1(C)OB(C(CC2CCCCC2)NC(=O)[C@H](CC(N)=O)NC(=O)C(Cc2cccc3ccccc23)CS(=O)(=O)C(C)(C)C)OC1(C)C (stereo partly drawn)
Result: lo

###

- SYSTEM: HIV-Protease (Human immunodeficiency virus type 1 group M subtype B, UniProt P04585)
- Construct: Max-Planck-Institut für Molekulare Genetik, Berlin
- ASSAY PROCEDURE: HIV protease test (cleavage of heptapeptide Ser-Phe-Asn-Phe-Pro-Gln-Ile, HPLC quantification of Ser-Phe-Asn-Phe)
- Assay type: biochemical
- MEASUREMENT SETUP: residual enzyme activity at 10^-4 M inhibitor; 100 % = mean of runs without inhibitor; 2 h, 37°C, pH ca. 6,0, 1 % DMSO; read-out: Restakt. bei 10^-4 M
# activity at 100 µM per record follows
State just the number; it will be interpreted in %.

Consider the worked cases shown below.
CCCC[C@H](NC(=O)[C@H](Cc1ccccc1)NC(=O)CC(C)C)C(=O)NC(CC1CCCCC1)B1OC(C)(C)C(C)(C)O1 (stereo partly drawn) [Beispiel 2]	74
CCC[C@H](NC(=O)C(Cc1ccccc1)CS(=O)(=O)C(C)(C)C)C(=O)NC(CC(CC)CC)B1OC(C)(C)C(C)(C)O1 (stereo partly drawn) [Beispiel 49]	46
CC(C)CC(=O)N[C@@H](Cc1cccs1)C(=O)N[C@@H](Cc1c[nH]cn1)C(=O)NC(CC1CCCCC1)B1OC(C)(C)C(C)(C)O1 (stereo partly drawn) [Beispiel 4]	96

Task: What activity at 100 µM value was documented for this compound, CCC[C@H](NC(=O)[C@H](Cc1ccccc1)NC(=O)CC(C)C)C(=O)NC(CC1CCCCC1)B1OC(C)(C)C(C)(C)O1 (stereo partly drawn) [Beispiel 1] ?
Result: 28

Task: Queued: CCC[C@H](NC(=O)C(Cc1cccc2ccccc12)CS(=O)(=O)C(C)(C)C)C(=O)NC(CC1CCCC1)B1OC(C)(C)C(C)(C)O1 (stereo partly drawn) [Beispiel 47]
Result: 16

Task: Queued: CC(C)CC(=O)N[C@@H](Cc1ccccc1)C(=O)N[C@@H](Cc1c[nH]cn1)C(=O)NC(CC1CCCCCCC1)B1OC(C)(C)C(C)(C)O1 (stereo partly drawn) [Beispiel 17]
Result: 52

###

- SYSTEM: HIV-Protease (Human immunodeficiency virus type 1 group M subtype B, UniProt P04585)
PROPERTY NAME: pIC50
API: returns pIC50 as number; meaning -log10 of concentration in mol/L.

Consider the worked cases shown below.
CCC[C@H](NC(=O)C(Cc1cccc2ccccc12)CS(=O)(=O)C(C)(C)C)C(=O)NC(CC1CCCC1)B1OC(C)(C)C(C)(C)O1 (stereo partly shown)	5.00
CCC[C@H](NC(=O)[C@H](Cc1ccccc1)NC(=O)CC(C)C)C(=O)NC(CC1CCCCC1)B1OC(C)(C)C(C)(C)O1 (stereo partly shown)	4.40
CC1(C)OB(C(CC2CCCCC2)NC(=O)[C@H](CC(N)=O)NC(=O)C(Cc2cccc3ccccc23)CS(=O)(=O)C(C)(C)C)OC1(C)C (stereo partly shown)	5.00

Field: next molecule
Task: What pIC50 value was documented for this molecule, CCC[C@H](NC(=O)C(Cc1ccccc1)CS(=O)(=O)C(C)(C)C)C(=O)NC(CC1CCCCC1)B1OC(C)(C)C(C)(C)O1 (stereo partly shown) ?
Result: 4.40

###

- SYSTEM: HIV-Protease (Human immunodeficiency virus type 1 group M subtype B)
- Construct: Max-Planck-Institut für Molekulare Genetik, Berlin
- ASSAY PROCEDURE: HIV protease test (cleavage of heptapeptide Ser-Phe-Asn-Phe-Pro-Gln-Ile, HPLC quantification of Ser-Phe-Asn-Phe)
- Assay type: biochemical
- MEASUREMENT SETUP: residual enzyme activity at 10^-4 M inhibitor; 100 % = mean of runs without inhibitor; 2 h, 37°C, pH ca. 6,0, 1 % DMSO; read-out: Restakt. bei 10^-4 M
# activity at 100 µM per record follows
State just the number; it will be interpreted in %.

Consider the worked cases shown below.
CC(C)CC(=O)N[C@@H](Cc1ccccc1)C(=O)N[C@@H](Cc1c[nH]cn1)C(=O)NC(CC1CCCCC1)B1OC(C)(C)C(C)(C)O1 (stereo partly shown) [Beispiel 3]	61
CCCC(NC(=O)C(Cc1ccccc1)NC(=O)CC(C)C)C(=O)NC(CC1CCCCC1)B1OC2CC3CC(C3(C)C)C2(C)O1 (stereo not shown) [Beispiel 12]	64
CCC[C@H](NC(=O)[C@H](Cc1ccccc1)NC(=O)CC(C)C)C(=O)NC(CC1CCCCCCC1)B1OC(C)(C)C(C)(C)O1 (stereo partly shown) [Beispiel 11]	96
CC(C)[C@H](NC(=O)C(Cc1cccc2ccccc12)CS(=O)(=O)C(C)(C)C)C(=O)NC(CC1CCCCC1)B1OC(C)(C)C(C)(C)O1 (stereo partly shown) [Beispiel 51]	5
CCC[C@H](NC(=O)C(Cc1ccccc1)CS(=O)(=O)C(C)(C)C)C(=O)NC(Cc1ccccc1)B1OC(C)(C)C(C)(C)O1 (stereo partly shown) [Beispiel 44]	72
CCC[C@H](NC(=O)[C@H](Cc1ccccc1)NC(=O)CC(C)C)C(=O)NC(CC1CCC(C)CC1)B1OC(C)(C)C(C)(C)O1 (stereo partly shown) [Beispiel 14]	75

Task: What activity at 100 µM value was documented for this molecule, CC(C)CC(=O)N[C@@H](Cc1ccccc1)C(=O)N(C)[C@@H](Cc1ccccc1)C(=O)NC(CC1CCCCC1)B1OC(C)(C)C(C)(C)O1 (stereo partly shown) [Beispiel 16] ?
Result: 70

Task: Queued: CCC[C@H](NC(=O)C(Cc1cccs1)CS(=O)(=O)C(C)(C)C)C(=O)NC(CC1CCCCCC1)B1OC(C)(C)C(C)(C)O1 (stereo partly shown) [Beispiel 40]
Result: 46

Task: Queued: CC1(C)OB(C(CC2CCCCC2)NC(=O)[C@H](CC(N)=O)NC(=O)C(Cc2cccs2)CS(=O)(=O)C(C)(C)C)OC1(C)C (stereo partly shown) [Beispiel 52]
Result: 49

Task: Queued: CCC[C@H](NC(=O)C(Cc1cccc2ccccc12)CS(=O)(=O)C(C)(C)C)C(=O)NC(CC(C)C)B1OC(C)(C)C(C)(C)O1 (stereo partly shown) [Beispiel 41]
Result: 35

Task: Queued: CCC[C@H](NC(=O)[C@H](Cc1ccccc1)NC(=O)CC(C)C)C(=O)NC(Cc1cccc2ccccc12)B1OC(C)(C)C(C)(C)O1 (stereo partly shown) [Beispiel 10]
Result: 77

Task: Queued: CC1(C)OB(C(Cc2ccccc2)NC(=O)[C@H](CC(N)=O)NC(=O)C(Cc2ccccc2)CS(=O)(=O)C(C)(C)C)OC1(C)C (stereo partly shown) [Beispiel 45]
Result: 49

Task: Queued: CC(C)CC(NC(=O)[C@H](Cc1c[nH]cn1)NC(=O)C(Cc1cccc2ccccc12)Cc1cccc2ccccc12)B1OC(C)(C)C(C)(C)O1 (stereo partly shown) [Beispiel 19]
Result: 37

Task: Queued: CCC[C@H](NC(=O)C(Cc1ccccc1)CS(=O)(=O)C(C)(C)C)C(=O)NC(B1OC(C)(C)C(C)(C)O1)C(C)CC (stereo partly shown) [Beispiel 50]
Result: 53

Task: Queued: CC(C)CC(=O)N[C@@H](Cc1ccccc1)C(=O)N[C@@H](Cc1c[nH]cn1)C(=O)NC(CC1CCCCCC1)B1OC(C)(C)C(C)(C)O1 (stereo partly shown) [Beispiel 18]
Result: 36

Task: Queued: CC(C)[C@H](NC(=O)C(Cc1ccccc1)CS(=O)(=O)C(C)(C)C)C(=O)NC(CC1CCCCC1)B1OC(C)(C)C(C)(C)O1 (stereo partly shown) [Beispiel 38]
Result: 11

Task: Queued: CCC[C@H](NC(=O)C(Cc1ccccc1)CS(=O)(=O)C(C)(C)C)C(=O)NC(B1OC(C)(C)C(C)(C)O1)C1CCCCCC1 (stereo partly shown) [Beispiel 46]
Result: 45

Task: Queued: CCC[C@H](NC(=O)[C@H](Cc1ccccc1)NC(=O)CC(C)C)C(=O)NC(CC1CCCCCC1)B1OC(C)(C)C(C)(C)O1 (stereo partly shown) [Beispiel 15]
Result: 86

Task: Queued: CCC[C@H](NC(=O)C(Cc1ccccc1)CS(=O)(=O)C(C)(C)C)C(=O)NC(CC1CCCCC1)B1OC(C)(C)C(C)(C)O1 (stereo partly shown) [Beispiel 35]
Result: 22
